Origin of the recorded values: paper PMC5607274

- subject of test: human recombinant Yes [a.a. 2–543 (end)] (Homo sapiens)
- Construct: human recombinant Yes [a.a; 2–543 (end)]; purchased BPS Bioscience 40488
- Sequence (P07947 2-543): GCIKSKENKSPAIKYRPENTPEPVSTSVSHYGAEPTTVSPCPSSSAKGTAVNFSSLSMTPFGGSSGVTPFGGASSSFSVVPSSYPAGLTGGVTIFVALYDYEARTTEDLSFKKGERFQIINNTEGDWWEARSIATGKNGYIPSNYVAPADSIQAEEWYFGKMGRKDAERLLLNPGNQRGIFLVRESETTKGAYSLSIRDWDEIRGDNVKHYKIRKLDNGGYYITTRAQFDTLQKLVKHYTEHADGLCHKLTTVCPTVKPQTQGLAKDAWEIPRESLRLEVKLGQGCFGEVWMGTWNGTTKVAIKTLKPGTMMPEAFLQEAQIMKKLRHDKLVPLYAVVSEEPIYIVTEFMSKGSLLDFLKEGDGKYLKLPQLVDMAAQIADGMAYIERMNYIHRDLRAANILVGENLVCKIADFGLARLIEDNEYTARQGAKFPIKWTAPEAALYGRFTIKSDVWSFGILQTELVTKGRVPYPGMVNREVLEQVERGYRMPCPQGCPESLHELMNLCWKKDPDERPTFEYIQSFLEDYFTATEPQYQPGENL
- test method notes: ADP-Glo kinase assay, inhibition rates of Yes phosphorylation activity (first and second screening)
- Assay type: biochemical
- condition details: first screening; mean of n = 4 wells; 10 μmol L−1 compound
- Protocol: All inhibitory assays of the phosphorylation activity of Yes were performed in accordance with the Promega Technical Manual for the ADP-Glo™ Kinase Assay (Fitchburg, WI, USA. Catalog number: V9102). The human recombinant Yes [a.a. […] The screening was conducted in three steps consisting of the first screening, the second screening, and the IC50 determination, as can be illustrated in Fig. 1b. First, we determined the inhibition rates of the 1,991 compounds. […]
Hi there, I'd appreciate the recorded First screening IR (inhibition rate) for every entry that follows.
Give bare numbers, in %.

Study these solved cases before continuing.
COC(=O)c1cc(-c2ccc(C)cc2)nc2c1cnn2C(C)C [Compound Z90671680] | 26
FC(F)(F)c1ccnc(Nc2ccc(N3CCCC3)nc2)n1 [Compound Z319012342] | -5
Cc1ccc(C(=O)Nc2ccc(OCc3ccccn3)c(F)c2)cn1 [Compound Z1318975474] | -2

Report First screening IR (inhibition rate) for each item below.
1. NC(=O)c1cnc(NCc2ccnc(N3CCCCC3)c2)c(Cl)c1 [Compound Z729056808]
2. Cc1ccc(C(=O)Nc2cc(C(=O)N3CCCCC3)ccc2Cl)o1 [Compound Z1037939812]
3. CC1CC(C)(C)CC2(C1)NC(=O)N(CN1CCN(c3ccc(C(F)(F)F)cn3)CC1)C2=O (centres unmarked) [Compound Z44255985]

Reply:
1. 2
2. 3
3. 18

Report First screening IR (inhibition rate) for each item below.
1. O=C(Nc1cccc(COc2cccc(F)c2)c1)c1ccc(=O)[nH]n1 [Compound Z383786992]
2. CC(=O)CCc1ccc(OCc2cc(=O)n3cc(C)ccc3n2)cc1 [Compound Z25824142]

Reply:
-2
-24
